- measurement.protocol: Cytotoxicity against human Li23 cells by WST assay
reported.metric: CC50 (µM)
Answer in µM, number only, no unit symbol.

- compound.smiles: "COc1cccc(S(=O)(=O)N(C)c2ccc(C(O)(C(F)(F)F)C(F)(F)F)cc2)c1"
  CC50 [µM]: 13

Requested read-out: CC50. Entry: CN(c1ccc(C(O)(C(F)(F)F)C(F)(F)F)cc1)S(=O)(=O)c1ccccc1Br
9.1

Another compound to check: CCCCC(=O)N(C)c1ccc(C(O)(C(F)(F)F)C(F)(F)F)cc1
26

Another compound to check: CN(c1ccc(C(O)(C(F)(F)F)C(F)(F)F)cc1)S(=O)(=O)c1ccccc1Cl
15

Another compound to check: Cc1ccc(S(=O)(=O)N(C)c2ccc(C(O)(C(F)(F)F)C(F)(F)F)cc2)cc1
15

Another compound to check: CC(=O)N(C)c1ccc(C(O)(C(F)(F)F)C(F)(F)F)cc1
40

Another compound to check: CN(C(=O)C1CCCCC1)c1ccc(C(O)(C(F)(F)F)C(F)(F)F)cc1
20

Each recorded value in this set is attributed to ChEMBL document CHEMBL3352101.
